// provenance: the supplement of paper PMC5998384

# System: HeLa Kyoto
# ASSAY_SUMMARY: thermal stability score vs G1/S (z-score of summed log2 fold changes over temperatures); higher = more thermally stable than in G1/S
# TEST_CONDITIONS: cell cycle stage: early G1 (4.5 h after nocodazole release)
Entries and their thermal stability score values follow.
Output spec: single numeric token, no unit.

RECORD_SEQUENCE	thermal stability score
MCGRTSCHLPRDVLTRACAYQDRRGQQRLPEWRDPDKYCPSYNKSPQSNSPVLLSRLHFEKDADSSERIIAPMRWGLVPSWFKESDPSKLQFNTTNCRSDTVMEKRSFKVPLGKGRRCVVLADGFYEWQRCQGTNQRQPYFIYFPQIKTEKSGSIGAADSPENWEKVWDNWRLLTMAGIFDCWEPPEGGDVLYSYTIITVDSCKGLSDIHHRMPAILDGEEAVSKWLDFGEVSTQEALKLIHPTENITFHAVSSVVNNSRNNTPECLAPVDLVVKKELRASGSSQRMLQWLATKSPKKEDSKTPQKEESDVPQWSSQFLQKSPLPTKRGTAGLLEQWLKREKEEEPVAKRPYSQ [HMCES]	1.11
MNPNCARCGKIVYPTEKVNCLDKFWHKACFHCETCKMTLNMKNYKGYEKKPYCNAHYPKQSFTMVADTPENLRLKQQSELQSQVRYKEEFEKNKGKGFSVVADTPELQRIKKTQDQISNIKYHEEFEKSRMGPSGGEGMEPERRDSQDGSSYRRPLEQQQPHHIPTSAPVYQQPQQQPVAQSYGGYKEPAAPVSIQRSAPGGGGKRYRAVYDYSAADEDEVSFQDGDTIVNVQQIDDGWMYGTVERTGDTGMLPANYVEAI [LASP1]	-2.02
MDRSAEFRKWKAQCLSKADLSRKGSVDEDVVELVQFLNMRDQFFTTSSCAGRILLLDRGINGFEVQKQNCCWLLVTHKLCVKDDVIVALKKANGDATLKFEPFVLHVQCRQLQDAQILHSMAIDSGFRNSGITVGKRGKTMLAVRSTHGLEVPLSHKGKLMVTEEYIDFLLNVANQKMEENKKRIERFYNCLQHALERETMTNLHPKIKEKNNSSYIHKKKRNPEKTRAQCITKESDEELENDDDDDLGINVTIFPEDY [TYW3]	-0.67
MAAAVVLAAGLRAARRAVAATGVRGGQVRGAAGVTDGNEVAKAQQATPGGAAPTIFSRILDKSLPADILYEDQQCLVFRDVAPQAPVHFLVIPKKPIPRISQAEEEDQQLLGHLLLVAKQTAKAEGLGDGYRLVINDGKLGAQSVYHLHIHVLGGRQLQWPPG [HINT2]	-0.929
MASGTTTTAVKIGIIGGTGLDDPEILEGRTEKYVDTPFGKPSDALILGKIKNVDCVLLARHGRQHTIMPSKVNYQANIWALKEEGCTHVIVTTACGSLREEIQPGDIVIIDQFIDRTTMRPQSFYDGSHSCARGVCHIPMAEPFCPKTREVLIETAKKLGLRCHSKGTMVTIEGPRFSSRAESFMFRTWGADVINMTTVPEVVLAKEAGICYASIAMATDYDCWKEHEEAVSVDRVLKTLKENANKAKSLLLTTIPQIGSTEWSETLHNLKNMAQFSVLLPRH [MTAP]	-1.8
MPRVVPDQRSKFENEEFFRKLSRECEIKYTGFRDRPHEERQARFQNACRDGRSEIAFVATGTNLSLQFFPASWQGEQRQTPSREYVDLEREAGKVYLKAPMILNGVCVIWKGWIDLQRLDGMGCLEFDEERAQQEDALAQQAFEEARRRTREFEDRDRSHREEMEVRVSQLLAVTGKKTTRP [CBFB]	0.755

q: Fetch value of thermal stability score on HeLa Kyoto for MPEESSPRRTPQSIPYQDLPHLVNADGQYLFCRYWKPTGTPKALIFVSHGAGEHSGRYEELARMLMGLDLLVFAHDHVGHGQSEGERMVVSDFHVFVRDVLQHVDSMQKDYPGLPVFLLGHSMGGAIAILTAAERPGHFAGMVLISPLVLANPESATTFKVLAAKVLNLVLPNLSLGPIDSSVLSRNKTEVDIYNSDPLICRAGLKVCFGIQLLNAVSRVERALPKLTVPFLLLQGSADRLCDSKGAYLLMELAKSQDKTLKIYEGAYHVLHKELPEVTNSVFHEINMWVSQRTATAGTASPP [MGLL] .
a: 0.0154

q: Send back HeLa Kyoto thermal stability score of MSDEREVAEAATGEDASSPPPKTEAASDPQHPAASEGAAAAAASPPLLRCLVLTGFGGYDKVKLQSRPAAPPAPGPGQLTLRLRACGLNFADLMARQGLYDRLPPLPVTPGMEGAGVVIAVGEGVSDRKAGDRVMVLNRSGMWQEEVTVPSVQTFLIPEAMTFEEAAALLVNYITAYMVLFDFGNLQPGHSVLVHMAAGGVGMAAVQLCRTVENVTVFGTASASKHEALKENGVTHPIDYHTTDYVDEIKKISPKGVDIVMDPLGGSDTAKGYNLLKPMGKVVTYGMANLLTGPKRNLMALARTWWNQFSVTALQLLQANRAVCGFHLGYLDGEVELVSGVVARLLALYNQGHIKPHIDSVWPFEKVADAMKQMQEKKNVGKVLLVPGPEKEN [VAT1] only.
a: -0.577

q: Param request: thermal stability score | system HeLa Kyoto | item MAWTKYQLFLAGLMLVTGSINTLSAKWADNFMAEGCGGSKEHSFQHPFLQAVGMFLGEFSCLAAFYLLRCRAAGQSDSSVDPQQPFNPLLFLPPALCDMTGTSLMYVALNMTSASSFQMLRGAVIIFTGLFSVAFLGRRLVLSQWLGILATIAGLVVVGLADLLSKHDSQHKLSEVITGDLLIIMAQIIVAIQMVLEEKFVYKHNVHPLRAVGTEGLFGFVILSLLLVPMYYIPAGSFSGNPRGTLEDALDAFCQVGQQPLIAVALLGNISSIAFFNFAGISVTKELSATTRMVLDSLRTVVIWALSLALGWEAFHALQILGFLILLIGTALYNGLHRPLLGRLSRGRPLAEESEQERLLGGTRTPINDAS [SLC35F6]
a: -2.27

q: Specify thermal stability score for MDSDDEMVEEAVEGHLDDDGLPHGFCTVTYSSTDRFEGNFVHGEKNGRGKFFFFDGSTLEGYYVDDALQGQGVYTYEDGGVLQGTYVDGELNGPAQEYDTDGRLIFKGQYKDNIRHGVCWIYYPDGGSLVGEVNEDGEMTGEKIAYVYPDERTALYGKFIDGEMIEGKLATLMSTEEGRPHFELMPGNSVYHFDKSTSSCISTNALLPDPYESERVYVAESLISSAGEGLFSKVAVGPNTVMSFYNGVRITHQEVDSRDWALNGNTLSLDEETVIDVPEPYNHVSKYCASLGHKANHSFTPNCIYDMFVHPRFGPIKCIRTLRAVEADEELTVAYGYDHSPPGKSGPEAPEWYQVELKAFQATQQK [SETD7] , system HeLa Kyoto.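 Further: synchronized HeLa Kyoto cells, proteins quantified by TMT10plex mass spectrometry, three biological replicates, mitosis taken 0.5 h after nocodazole release, G1/S directly after double thymidine block.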
a: 1.42
